test: mitochondrial membrane potential change in A549 cells, profiling panel, cell-based, JC-1 fluorescence, basal, 24 h, 100 nL (AID 1138); conditions: higher = more signal;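 also: A549 lung adenocarcinoma cells under basal conditions with no added stimulus; test concentration not given here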
Would you mind sorting the entries by z-score according to these classes? L = under -0.9, M = from -0.9 up to 0.3, H = 0.3 and over

Use the examples below as a reference point.
COc1ccc([Si](C)(C)[C@@H]2[C@@H](CC(=O)N(CCO)Cc3ccccc3)O[C@]3(C(=O)N(Cc4cccc(N5CCOC5=O)c4)c4ccccc43)[C@H]2C)cc1 :: M
C=C(/C(=C/C[C@H](OC(C)=O)c1cccc(OCCO)c1)c1cnc2ccccc2c1)C(C)C :: H
CCOC(=O)C[C@H]1[C@H](OC(=O)c2ccccc2-c2ccccc2)[C@@H](NC(=O)C2CCCCC2)c2cc(OCCCO)ccc2N1C(=O)Cc1ccc(OC)cc1 :: H
O=C(NCC(F)(F)F)[C@@H]1c2ccccc2C(=O)N(Cc2cc(F)cc(C(F)(F)F)c2)[C@H]1c1ccc(CO)cc1 :: L

Incoming: Which of the defined bands does the recorded z-score of C=C(C(=O)CC[C@@H](OC(C)=O)c1ccc(CO)o1)C(C)C sit within?
Outgoing: M

Incoming: Which of the defined bands does the recorded z-score of COC1OC[C@]2(C)[C@H]3C4=C(CN2C(=O)OC(C)(C)C)[C@H](C)C(CO)C(CO)C4CC[C@@H]13 (stereo not given in full) sit within?
Outgoing: H

Incoming: Which of the defined bands does the recorded z-score of Cc1cc(C)c(C(O)C2C=CC3C(=O)NC(=O)C3N2Nc2ccc(Cl)cc2Cl)c(C)c1 (stereo not given) sit within?
Outgoing: M

Incoming: Which of the defined bands does the recorded z-score of [N-]=[N+]=NCc1ccccc1[C@@H]1OC(c2ccc(OCCCO)cc2)=N[C@]1(CCS(=O)(=O)c1ccccc1)C(=O)NCC(O)CO (stereo not given in full) sit within?
Outgoing: M

Incoming: Which of the defined bands does the recorded z-score of NC(N)=NCCCn1cc(CNC(=O)[C@@H](N)Cc2ccccc2)nn1 sit within?
Outgoing: M

Incoming: Which of the defined bands does the recorded z-score of COc1cc2c(cc1OC)CN(C(=O)[C@@H]1[C@H]3C(=O)O[C@H](c4ccccc4)[C@H](c4ccccc4)N3[C@H](c3ccc(OCCO)cc3)[C@@]13C(=O)Nc1ccccc13)CC2 sit within?
Outgoing: L

Incoming: Which of the defined bands does the recorded z-score of COc1cccc(/C=C/C=O)c1 sit within?
Outgoing: H

Incoming: Which of the defined bands does the recorded z-score of O=C1O[C@H](c2ccccc2)[C@H](c2ccccc2)N2[C@H]1[C@@H](C(=O)Nc1nc3ccccc3s1)[C@]1(C(=O)Nc3ccccc31)[C@H]2c1ccc(OCCO)cc1 sit within?
Outgoing: L

Incoming: Which of the defined bands does the recorded z-score of CC=CC(O)C1C=CC2C(=O)N(c3ccccc3)C(=O)C2N1Nc1ccccc1F (stereo not given) sit within?
Outgoing: L

###

target: Dickkopf-related protein 1 (Homo sapiens) (UniProt O94907); assay: DKK1 binders on small-molecule microarrays, primary screen, biochemical, small-molecule microarray, 635 nm fluorescence scan (AID 1106); conditions: DKK1 binding, higher = more signal;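 also: score merges emission near 667 nm with signal to noise over three replicate slides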
Sequence (O94907 whole entry, looked up): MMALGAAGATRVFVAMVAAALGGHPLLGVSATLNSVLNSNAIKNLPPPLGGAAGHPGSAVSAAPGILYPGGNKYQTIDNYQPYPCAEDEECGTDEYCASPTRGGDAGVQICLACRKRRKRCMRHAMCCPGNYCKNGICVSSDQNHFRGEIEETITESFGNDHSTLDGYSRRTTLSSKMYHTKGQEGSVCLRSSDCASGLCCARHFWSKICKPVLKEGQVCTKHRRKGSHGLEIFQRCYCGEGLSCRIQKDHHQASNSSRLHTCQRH
VALUE KIND: composite z-score

Observe how each entry below is paired with its result.
O=C1c2ccccc2[C@](Cc2ccccc2I)(C(=O)NCC(F)(F)F)[C@H](c2ccc(CO)cc2)N1C1CCCCC1 :: -0.239
O=C1C2C=CC(C(O)c3ccc(Br)cc3)N(Nc3ccccc3F)C2C(=O)N1c1ccccc1 (centres undefined) :: -0.325
C=C(COC)/C(=C/C[C@H](OC(C)=O)c1ccc(OCCO)cc1)c1cc(C(=O)OC)ccc1OC :: 0.468

# next compound below
Looking up COc1ccc(C#Cc2ccc3c(c2)[C@]2(C(=O)N3)[C@H](c3ccc(O)cc3)N3[C@H](c4ccccc4)[C@H](c4ccccc4)OC(=O)[C@H]3[C@@H]2C(=O)O)cc1 , I see its composite z-score listed as -0.474

###

experiment: compound binding in COS7 lysate, probe aLAP1, primary screen, cell lysate, small-molecule microarray (AID 1124); conditions: probe aLAP1, fluorescence, higher = more signal;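 also: lysate comes from COS7 cells expressing LAP1 and is applied at 0.3 µg/mL; score merges spot fluorescence near 667 nm with signal-to-noise over triplicate slides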
Please use true whenever composite z-score is not below 0.07, and false whenever it is.

COC(=O)[C@H](Cc1ccccc1)N1CC(/C=C/C2CC2)=C[C@H]1[C@H](O)Cc1ccccc1 :: true
CC(C)C[C@@H]1NC(=O)[C@@H]2C[C@H](C(=O)NCCCCN(C)C)[C@H](c3cccc(OCCO)c3)N2C1=O :: true
C=CCC(OC(C)=O)[C@@H]1[C@@H](N(Cc2cccc3ccccc23)C(=O)Cc2ccc(F)cc2)c2cc(OCCCO)ccc2N1C(=O)c1ccc2ccccc2n1 (stereo not given in full) :: true
CCCCCCc1nc(-c2cc(C)c(OC)c(C)c2)c(C)c2c1[Si](C(C)C)(C(C)C)OC2 :: false

Moving on to another compound below.
Incoming: Textbook exercise: given the entry CC(CO)N1C(=O)[C@@H]2[C@H]3C(=O)OCC=C[C@H]3OC23C=CCN(CCN2CCOCC2)C(=O)[C@@H]13 (stereo not given in full) , state whether its composite z-score is greater than or equal to 0.07.
Outgoing: false

###

List of z-score values.
biological target: Luciferin 4-monooxygenase (Photinus pyralis) (UniProt P08659); assay: firefly luciferase enzyme inhibitors, primary screen, biochemical, luminescence, purified enzyme, 2006 set (AID 1141); conditions: SteadyGlo luminescence, 30 min, higher = more signal, called active from +8 up or from −8 down;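 also: cell-free assay with purified firefly luciferase at 100 ng per well in PBS; test concentration not given here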
Sequence (P08659 whole entry, looked up): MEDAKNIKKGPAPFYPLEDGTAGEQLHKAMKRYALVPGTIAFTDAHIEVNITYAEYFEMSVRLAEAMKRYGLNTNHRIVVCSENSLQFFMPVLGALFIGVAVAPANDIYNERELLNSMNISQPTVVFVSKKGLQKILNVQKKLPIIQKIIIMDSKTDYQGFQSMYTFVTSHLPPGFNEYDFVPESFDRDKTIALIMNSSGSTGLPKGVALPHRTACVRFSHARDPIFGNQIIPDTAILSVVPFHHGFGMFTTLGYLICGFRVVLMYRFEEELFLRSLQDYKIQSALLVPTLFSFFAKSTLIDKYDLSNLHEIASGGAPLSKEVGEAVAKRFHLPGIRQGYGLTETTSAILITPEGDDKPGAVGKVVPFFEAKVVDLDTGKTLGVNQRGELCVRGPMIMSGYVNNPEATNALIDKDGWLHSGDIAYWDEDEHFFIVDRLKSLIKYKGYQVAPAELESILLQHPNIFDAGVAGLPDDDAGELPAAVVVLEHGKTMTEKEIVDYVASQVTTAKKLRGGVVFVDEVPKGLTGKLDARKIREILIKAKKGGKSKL
Active and inactive are the calls of the source.

Observe how each entry below is paired with its result.
O=C1C2C=CC(C(O)c3ccc(Br)cc3)N(Nc3ccccc3F)C2C(=O)N1c1ccccc1 (centres undefined) :: 1.71 (inactive)
O=C(NCc1ccccc1)[C@@H]1c2ccccc2C(=O)N(Cc2ccccc2C(F)(F)F)[C@H]1c1ccc(CO)cc1 :: -0.745 (inactive)
CN1C(=O)C2C=CC(C(O)c3ccccn3)N(N(c3ccccc3)c3ccccc3)C2C1=O (centres undefined) :: -0.009 (inactive)

# next compound below
Looking up CCOC(=O)C1=CC[C@@H](c2ccccc2C(F)(F)F)N(S(=O)(=O)c2ccc(C)cc2)[C@H]1c1ccc(C#N)cc1 , I see its z-score listed as 1.47 (inactive)

###

List of z-score values.
target: Luciferin 4-monooxygenase (Photinus pyralis) (UniProt P08659); assay: firefly luciferase enzyme inhibitors, primary screen, biochemical, luminescence, purified enzyme, 2006 set (AID 1141); details: SteadyGlo luminescence, 30 min, higher = more signal, called active from +8 up or from −8 down;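 also: cell-free assay with purified firefly luciferase at 100 ng per well in PBS; test concentration not given here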
Answer as a number with no unit attached.

Observe how each entry below is paired with its result.
CC1CC/C=C\[C@H]2OC34C=CCN(C(C)C)C(=O)[C@H]3N(CCCCCCO)C(=O)[C@@H]4C2C(=O)O1 (some centres not stated) :: -3.19
COc1cc2c(cc1OC)CN(C(=O)[C@@H]1[C@H]3C(=O)O[C@H](c4ccccc4)[C@H](c4ccccc4)N3[C@H](c3ccc(OCCO)cc3)[C@@]13C(=O)Nc1ccc(C#CC4(O)CCCCCC4)cc13)CC2 :: -7.42

Looking up CN(C)c1ccc(C(O)C2C=CC3C(=O)N(c4ccccc4)C(=O)C3N2Nc2ccc([N+](=O)[O-])cc2)cc1 (configuration not stated) , I see its z-score listed as -0.421

Looking up C=CCC(OC(C)=O)[C@@H]1[C@@H](N(Cc2ccc(-c3ccccc3)cc2)C(=O)Cc2ccc(F)cc2)c2cc(OCCCO)ccc2N1C(=O)Cc1ccc(OC)cc1 (some centres not stated) , I see its z-score listed as -0.51

Looking up COC(=O)[C@@]1(Cc2ccc(F)cc2)[C@H]2c3cc(C(=O)N(C)C)n(Cc4cc(F)cc5c4OCOC5)c3C[C@H]2CN1C(=O)c1ccccc1 , I see its z-score listed as -0.724

Looking up COc1cccc(/C=C/C=O)c1 , I see its z-score listed as -1.36

Looking up C=C(C)C1CCC(C(O)C2C=CC3C(=O)N(C)C(=O)C3N2N2CCCCC2)CC1 (configuration not stated) , I see its z-score listed as 0.344

###

assay: binders of probe aFSTL3 on microarray, primary screen, stem cell growth factor project, biochemical, small-molecule microarray, fluorescence 635/667 (AID 1064); details: higher = more signal;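 also: measures binding of the biotinylated anti-FSTL3 antibody to printed compounds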
Please use 1 (yes) whenever composite z-score is not below -0.2, and 0 (no) whenever it is.

O=C1C[C@@](C(=O)NCCN2CCOCC2)(c2ccc([N+](=O)[O-])cc2)[C@@H](c2ccc(CO)cc2I)N1C1CCCCC1 :: 0 (no)
CCC[C@@H]1C[C@@]1(CCC)[C@@H](NC(=O)OCc1ccccc1)c1ccc(-c2ccccc2)cc1 :: 1 (yes)
COCCOC(=O)N1C(=O)[C@@]2(c3cc(C#Cc4ccc(OC)cc4)ccc31)[C@H](C(=O)Nc1nc3ccccc3s1)[C@H]1C(=O)O[C@H](c3ccccc3)[C@H](c3ccccc3)N1[C@@H]2c1ccc(OCCO)cc1 :: 0 (no)
NC(=O)NCC#Cc1ccc2c(c1)[C@]1(C(=O)N2)[C@H](C(=O)O)[C@H]2C(=O)O[C@H](c3ccccc3)[C@H](c3ccccc3)N2[C@@H]1c1ccc(OCCO)cc1 :: 1 (yes)
Cc1ccccc1C(O)C1C=CC2C(=O)N(C)C(=O)C2N1N(c1ccccc1)c1ccccc1 (configuration not stated) :: 1 (yes)

Incoming: Textbook exercise: given the entry CCCCCCCCCCC(O)C1C=CC2C(=O)N(C)C(=O)C2N1NC(=O)OC(C)(C)C (configuration not stated) , state whether its composite z-score is greater than or equal to -0.2.
Outgoing: 0 (no)

Incoming: Textbook exercise: given the entry CC(C)[Si](C#C[Si](C(C)C)(C(C)C)C(C)C)(O[C@H](C)c1cn([C@H](CO)Cc2ccccc2)nn1)C(C)C , state whether its composite z-score is greater than or equal to -0.2.
Outgoing: 0 (no)
